# Tested on: Streptococcus pyogenes
# assay procedure: In vitro antibacterial activity against gram-positive organism Streptococcus pyogenes EES61
# Format: functional
# settings: Streptococcus pyogenes; read-out: MIC
recorded metric: MIC (µg/mL)

[[record]]
molecule = "COc1c(N2CCC(N)C2)c(F)cn2c(=O)c(C(=O)O)cc(C3CC3)c12 (stereo not given)"
recorded_metric = "MIC"
result_number = 0.2

[[record]]
molecule = "Cc1c(N2CC[C@@H]([C@@H](C)N)C2)c(F)cn2c(=O)c(C(=O)O)cc(C3CC3)c12"
recorded_metric = "MIC"
result_number = 0.005

[[record]]
molecule = "Cc1c(N2C[C@@H]3CCN[C@@H]3C2)c(F)cn2c(=O)c(C(=O)O)cc(C3CC3)c12 (stereo in doubt; 45o)"
recorded_metric = "MIC"
result_number = 0.05

[[record]]
molecule = "CCc1cc(C(=O)O)c(=O)n2ccc(N3CCC(N)C3)cc12.Cl (stereo not given)"
recorded_metric = "MIC"
result_number = 25

[[record]]
molecule = "Cc1c(N2CCC(n3ccnn3)C2)c(F)cn2c(=O)c(C(=O)O)cc(C3CC3)c12 (stereo not given)"
recorded_metric = "MIC"
result_number = 0.05


* * *

# assay procedure: In vitro antibacterial activity against gram-negative organism Pseudomonas aeruginosa DPHD-2862
# Assay type: functional
# settings: Pseudomonas aeruginosa; read-out: MIC
recorded metric: MIC (µg/mL)

[[record]]
molecule = "Cc1c(N2CCC(N(C)C)C2)c(F)cn2c(=O)c(C(=O)O)cc(C3CC3)c12 (centres undefined)"
value_relation_sign = "="
result_number = 12.5

[[record]]
molecule = "C[C@H]1C[C@H](N)CN1c1nc2c(-c3ccc(F)cc3F)cc(C(=O)O)c(=O)n2cc1F"
value_relation_sign = "="
result_number = 50

[[record]]
molecule = "Cc1c(N2CC[C@H](N)C2)c(F)cn2c(=O)c(C(=O)O)cc(C3CC3)c12"
value_relation_sign = "="
result_number = 0.78

[[record]]
molecule = "Cc1c(N2C[C@@H](N)[C@@H](C)C2)c(F)cn2c(=O)c(C(=O)O)cc(C3CC3)c12"
value_relation_sign = "="
result_number = 1.56

[[record]]
molecule = "Cc1c(N2CC[C@@H]3CNC[C@@H]32)c(F)cn2c(=O)c(C(=O)O)cc(C3CC3)c12"
value_relation_sign = "="
result_number = 3.1

[[record]]
molecule = "NC1CCN(c2c(F)cn3c(=O)c(C(=O)O)cc(C4CC4)c3c2Cl)C1 (centres undefined)"
value_relation_sign = "="
result_number = 6.2

[[record]]
molecule = "CN1CCN(c2nc3c(C4CC4)cc(C(=O)O)c(=O)n3cc2F)CC1"
value_relation_sign = ">"
result_number = 100

[[record]]
molecule = "CNC1CCN(c2c(F)cn3c(=O)c(C(=O)O)cc(C4CC4)c3c2C)C1 (centres undefined)"
value_relation_sign = "="
result_number = 1.56

[[record]]
molecule = "Cc1c(N2C[C@@H]3C[C@H]2CN3)c(F)cn2c(=O)c(C(=O)O)cc(C3CC3)c12"
value_relation_sign = "="
result_number = 6.2


* * *

# assay procedure: physchem
# settings: phosphate buffer, pH 7.4
# Description: Aqueous solubility in pH 7.4 phosphate buffer (0.05 M) at 37 degree C
recorded metric: solubility

[[record]]
compound = "CC(NC(=O)C(C)NC1CCN(c2nc3c(-c4ccc(F)cc4F)cc(C(=O)O)c(=O)n3cc2F)C1)C(=O)O (stereo not drawn)"
result = "1000 µg/mL"

[[record]]
compound = "Cc1c(N2C[C@@H](N)C[C@@H]2C)c(F)cn2c(=O)c(C(=O)O)cc(C3CC3)c12"
result = "70 µg/mL"

[[record]]
compound = "Cc1c(N2CC[C@@H]3CNC[C@@H]32)c(F)cn2c(=O)c(C(=O)O)cc(C3CC3)c12"
result = "1940 µg/mL"


* * *

// reported bioavailability per item
# assay procedure: in vivo
# settings: rat, po, 5 mg/kg
# Description: Oral bioavailability in rat (dose 5 mg/kg)
recorded metric: bioavailability (%)

[[record]]
compound = "Cc1c(N2C[C@@H](N)[C@@H](C)C2)c(F)cn2c(=O)c(C(=O)O)cc(C3CC3)c12"
result_number = 23

[[record]]
compound = "Cc1c(N2CC[C@@H](N)C2)c(F)cn2c(=O)c(C(=O)O)cc(C3CC3)c12"
result_number = 10

[[record]]
compound = "Cc1c(N2C[C@@H]3CCN[C@@H]3C2)c(F)cn2c(=O)c(C(=O)O)cc(C3CC3)c12 (stereo in doubt; 45o)"
result_number = 62

[[record]]
compound = "Cc1c(N2CC[C@H](N)C2)c(F)cn2c(=O)c(C(=O)O)cc(C3CC3)c12 [ABT-719]"
result_number = 32

[[record]]
compound = "Cc1c(N2CCC(O)C2)c(F)cn2c(=O)c(C(=O)O)cc(C3CC3)c12 (configuration not stated)"
result_number = 50

[[record]]
compound = "Cc1c(N2C[C@@H](N)C[C@@H]2C)c(F)cn2c(=O)c(C(=O)O)cc(C3CC3)c12"
result_number = 44

[[record]]
compound = "Cc1c(N2CC[C@@H]3CNC[C@@H]32)c(F)cn2c(=O)c(C(=O)O)cc(C3CC3)c12"
result_number = 41


* * *

// reported half-life per item
# assay procedure: in vivo
# settings: rat, plasma, po, 5 mg/kg
recorded metric: half-life (min)

[[record]]
molecule = "Cc1c(N2C[C@@H]3CCN[C@@H]3C2)c(F)cn2c(=O)c(C(=O)O)cc(C3CC3)c12 (stereo in doubt; 45o)"
unit_abbrev = "min"
result_number = 246

[[record]]
molecule = "Cc1c(N2CC[C@@H]3CNC[C@@H]32)c(F)cn2c(=O)c(C(=O)O)cc(C3CC3)c12"
unit_abbrev = "min"
result_number = 342


* * *

// reported log10(CC50) per item
# target entity: DNA gyrase (Escherichia coli) (UniProt P0AES6+P0AES4)
# settings: Escherichia coli K-12
# Description: Concentration which causes 50% of the gyrase (Escherichia coli H560)-mediated maximal DNA cleavage.
recorded metric: log10(CC50) (log10 of the value in µg/mL)

[[record]]
compound = "Cc1c(N2CC[C@@H](N)C2)c(F)cn2c(=O)c(C(=O)O)cc(C3CC3)c12"
recorded_metric = "log10(CC50)"
result_number = -0.82

[[record]]
compound = "Cc1c(N2CCC(N)C2)c(F)cn2c(=O)c(/C(O)=C/[N+](=O)[O-])cc(C3CC3)c12 (centres undefined)"
recorded_metric = "log10(CC50)"
result_number = 0.48

[[record]]
compound = "Cc1c(-n2ccnc2)c(F)cn2c(=O)c(C(=O)O)cc(C3CC3)c12"
recorded_metric = "log10(CC50)"
result_number = -0.52

[[record]]
compound = "CNC1CCN(c2c(F)cn3c(=O)c(C(=O)O)cc(C4CC4)c3c2C)C1 (centres undefined)"
recorded_metric = "log10(CC50)"
result_number = -1.10

[[record]]
compound = "Cc1c(N2CC[C@@H]3CNC[C@@H]32)c(F)cn2c(=O)c(C(=O)O)cc(C3CC3)c12"
recorded_metric = "log10(CC50)"
result_number = -0.40

[[record]]
compound = "Cc1c(N2CC[C@@H]([C@H](C)N)C2)c(F)cn2c(=O)c(C(=O)O)cc(C3CC3)c12"
recorded_metric = "log10(CC50)"
result_number = -0.52

[[record]]
compound = "Cc1c(NCCN)c(F)cn2c(=O)c(C(=O)O)cc(C3CC3)c12"
recorded_metric = "log10(CC50)"
result_number = -0.10

[[record]]
compound = "CN1CCN(c2nc3c(C4CC4)cc(C(=O)O)c(=O)n3cc2F)CC1"
recorded_metric = "log10(CC50)"
result_number = 0.00

[[record]]
compound = "Cc1c(N2CC[C@@H]([C@@H](C)N)C2)c(F)cn2c(=O)c(C(=O)O)cc(C3CC3)c12"
recorded_metric = "log10(CC50)"
result_number = -0.40


* * *

# System: Streptococcus pyogenes
# assay procedure: In vitro antibacterial activity against gram-positive organism Streptococcus pyogenes EES61
# Assay type: functional
# settings: Streptococcus pyogenes; read-out: MIC
// reported MIC per item
recorded metric: MIC (µg/mL)

[[record]]
compound = "O=C(O)c1cc(C2CC2)c2nc(N3CCNCC3)c(F)cn2c1=O"
unit_abbrev = "µg/mL"
result_number = 12.5

[[record]]
compound = "Cc1c(NCCN)c(F)cn2c(=O)c(C(=O)O)cc(C3CC3)c12"
unit_abbrev = "µg/mL"
result_number = 6.2

[[record]]
compound = "CNC1CCN(c2c(F)cn3c(=O)c(C(=O)O)cc(C4CC4)c3c2C)C1 (centres undefined)"
unit_abbrev = "µg/mL"
result_number = 0.05

[[record]]
compound = "Cc1c(N2CC[C@@H](N)C2)c(F)cn2c(=O)c(C(=O)O)cc(C3CC3)c12"
unit_abbrev = "µg/mL"
result_number = 0.05

[[record]]
compound = "Cc1c(N2CCC(C)(N)C2)c(F)cn2c(=O)c(C(=O)O)cc(C3CC3)c12 (centres undefined)"
unit_abbrev = "µg/mL"
result_number = 0.1

[[record]]
compound = "Cc1c(N2C[C@H]3CCC[C@@H](N)[C@H]3C2)c(F)cn2c(=O)c(C(=O)O)cc(C3CC3)c12"
unit_abbrev = "µg/mL"
result_number = 0.005

[[record]]
compound = "Cc1c(N2CCC(n3cccc3)C2)c(F)cn2c(=O)c(C(=O)O)cc(C3CC3)c12 (centres undefined)"
unit_abbrev = "µg/mL"
result_number = 0.1

[[record]]
compound = "Cc1c(N2CCC(c3ccccn3)C2)c(F)cn2c(=O)c(C(=O)O)cc(C3CC3)c12 (centres undefined)"
unit_abbrev = "µg/mL"
result_number = 0.05

[[record]]
compound = "CCc1c(N2CCC(N)C2)c(F)cn2c(=O)c(C(=O)O)cc(C3CC3)c12 (centres undefined)"
unit_abbrev = "µg/mL"
result_number = 0.39

